Numbers sourced from the supplement of paper PMC6089552.

Measured cell viability (log2), listed per entry.
- System: A673/TR/shEF
- assay-text: cell viability (LOESS-normalised, relative to median of negative controls) (log2 ratio); higher = more viable cells (less compound effect), active = hit call of the paper (over 3 MAD below the median)
- test-conditions: 2.5 µM; library screen: screen2; EWS-FLI1 expression: low (doxycycline-induced shRNA knockdown); treatment time: 72 h
About 300 (9.4%) of roughly 3,200 compounds showed activity. This is one part of a sample in which actives are shown more often than they occur.
result-type: cell viability (log2)

INSERT INTO assay_data (smiles_representation, result_type, measurement) VALUES
  ('c1ccc([C@@H]2CCC[C@@H]2NC2=NCCCCCCCCCCC2)cc1', 'cell viability (log2)', 0.156),
  ('CNCCNS(=O)(=O)c1cccc2cnccc12', 'cell viability (log2)', 0.037),
  ('N[C@H](CO)C(=O)O', 'cell viability (log2)', 0.112),
  ('O=C(O)Cc1ccc(O)c(O)c1', 'cell viability (log2)', 0.108);
